test system: Trypanosoma brucei brucei; experiment: GSK_TCAKS: pIC50 Trypanosoma brucei viability assay using fluorescence intensity. Assay plates (1536-well) were prepared by dispensing 25nL of compound solution per well using an Echo acoustic dispenser (Labcyte).; assay type: functional, organism-based; settings: Lister 427, 2 h
measured_endpoint: pIC50
Just so you know, pIC50 here is -log10 of the concentration in molar units; reply with that number alone.

// solved cases for pIC50 follow
>>> obs_value("N#Cc1ccc(C(=O)Nc2cccc(-c3cccc(CN4CCC(O)CC4)c3)c2)cc1")
6.10
>>> obs_value("CC(C)(C)c1cc(NC2CC2)nc(-c2ccccn2)n1")
5.10

Determine its reported pIC50: Cc1ccc(NC(=O)C(C)n2nc([N+](=O)[O-])c(Br)c2C)cc1Cl (stereo not drawn)
4.80

Source listed as ChEMBL document CHEMBL3430912.
